Reported growth values for the following compounds.
system: HCC-2998 colon; assay: NCI-60 one-dose screen, 48 h (100 = growth as untreated, 0 = no growth, -100 = all killed); details: 10 µM unless noted
This is part of a sample that, as a whole, favours compounds with a hit. Of some 83,000 tested, about 20% had one in any assay. Calls of active or inactive are those of the source. How the source made its calls: active means growth percent below 10; inactive means the rest.

{"columns": ["compound", "tgt", "growth"],
 "data": [
  ["COc1cc(C(=O)c2cc3c(cc2C)OCO3)cc(OC)c1OC", "HCC-2998 colon", "10.1% (inactive)"],
  ["COc1cnc2c(c1)C(=O)c1c-2n(CCCn2ccnc2)c(=O)c2cc(F)ccc12", "HCC-2998 colon", "4.65% (active)"],
  ["COc1ccccc1-n1c(-c2ccc(O)cc2C)cn2c3c(=O)[nH]c(=O)n(C)c3nc12", "HCC-2998 colon", "104% (inactive)"],
  ["CN[C@@H]1C(OC2[C@H](O[C@H]3[C@H](O)[C@@H](O)[C@H](N=C(N)N)[C@@H](O)[C@@H]3N=C(N)N)OC(C)[C@]2(O)CO)OC(CO)C(O)C1O (some centres not stated)", "HCC-2998 colon", "97.5% (inactive)"],
  ["CO[C@H]1/C=C/O[C@@]2(C)Oc3c(C)c(O)c4c(O)c(c(/C=N/N5C(C)CN(Cc6ccc(C#N)cc6)CC5C)c(O)c4c3C2=O)NC(=O)/C(C)=C\\C=C\\[C@H](C)[C@H](O)[C@@H](C)[C@@H](O)[C@@H](C)[C@H](OC(C)=O)[C@@H]1C (some centres not stated)", "HCC-2998 colon", "2.4% (active)"],
  ["O=c1c2ccccc2c2nccn2c2cc(Cl)ccc12", "HCC-2998 colon", "67.3% (inactive)"],
  ["C[C@@H]1CN(c2nc3c(cc2F)c(=O)c(C(=O)O)cn3C(C)(C)C)C[C@H](C)N1", "HCC-2998 colon", "98.1% (inactive)"]
]}

Reference for the values: PubChem BioAssay (NCI)
